ASSAY_REMARKS: AUC in CD-1 mouse at 1 mg/kg, iv
Assay type: ADME, organism-based
Design: dose 1 mg/kg, route intravenous
EXPERIMENTAL_PARAMETERS: plasma
MEASURE: AUC

>>> df
                            compound_string  assay_value
0  COc1c(Nc2ncc(Cl)c(N[C@H]3[C@@H](C(N)=O)[C@@H]4C=C[C@H]3C4)n2)ccc2c1CC[C@@H](N1CCOCC1)CC2  584 ng·h/mL

* * *

ASSAY_REMARKS: Cmax in cynomolgus monkey at 10 mg/kg, po
Format: ADME, organism-based, Macaca fascicularis
Set-up: dose 10 mg/kg, route oral
EXPERIMENTAL_PARAMETERS: in vivo
MEASURE: Cmax (ng/mL)

>>> print(df.to_string())
                            compound_string  assay_value
0  COc1c(Nc2ncc(Cl)c(N[C@H]3[C@@H](C(N)=O)[C@@H]4C=C[C@H]3C4)n2)ccc2c1CC[C@@H](N1CCOCC1)CC2          170

* * *

ASSAY_REMARKS: Cmax in SCID mouse at 10 mg/kg, po
Assay type: ADME, organism-based
Set-up: dose 10 mg/kg, route oral
EXPERIMENTAL_PARAMETERS: in vivo
MEASURE: Cmax (ng/mL)

>>> df
                            compound_string  measure_unit  assay_value
0  COc1c(Nc2ncc(Cl)c(N[C@H]3[C@@H](C(N)=O)[C@@H]4C=C[C@H]3C4)n2)ccc2c1CC[C@@H](N1CCOCC1)CC2         ng/mL         2750

* * *

Test system: Rattus norvegicus
ASSAY_REMARKS: Ratio of AUC (0 to 12 h) at 10 mg/kg, po to AUC (0 to 12 h) at 100 mg/kg, po in rat
Assay type: ADME, organism-based
EXPERIMENTAL_PARAMETERS: in vivo
MEASURE: Ratio

In [3]: df
Out[3]:
                            compound_string  measure  assay_value
0  CCN1C(=O)CCCc2c1ccc(Nc1ncc(Cl)c(N[C@H]3[C@@H](C(N)=O)[C@@H]4C=C[C@H]3C4)n1)c2OC    Ratio            2
1  COc1c(Nc2ncc(Cl)c(N[C@H]3[C@@H](C(N)=O)[C@@H]4C=C[C@H]3C4)n2)ccc2c1CC[C@@H](N1CCOCC1)CC2    Ratio           15

* * *

ASSAY_REMARKS: Half life in CD-1 mouse at 1 mg/kg, iv
Assay type: ADME, organism-based
Set-up: dose 1 mg/kg, route intravenous
EXPERIMENTAL_PARAMETERS: in vivo
MEASURE: half-life (min)

                            compound_string  assay_value
0  COc1c(Nc2ncc(Cl)c(N[C@H]3[C@@H](C(N)=O)[C@@H]4C=C[C@H]3C4)n2)ccc2c1CC[C@@H](N1CCOCC1)CC2           42

* * *

ASSAY_REMARKS: Plasma clearance in cynomolgus monkey at 1 mg/kg, iv
Assay type: ADME, organism-based, Macaca fascicularis
Design: dose 1 mg/kg, route intravenous
MEASURE: clearance (mL/min/kg)

>>> print(df.to_string())
                            compound_string    measure  measure_unit  assay_value
0  COc1c(Nc2ncc(Cl)c(N[C@H]3[C@@H](C(N)=O)[C@@H]4C=C[C@H]3C4)n2)ccc2c1CC[C@@H](N1CCOCC1)CC2  clearance     mL/min/kg           28

* * *

ASSAY_REMARKS: Cmax in Sprague-Dawley rat at 10 mg/kg, po
Type: ADME, organism-based
Set-up: dose 10 mg/kg, route oral
EXPERIMENTAL_PARAMETERS: in vivo
MEASURE: Cmax (ng/mL)

                            compound_string  assay_value
0  COc1c(Nc2ncc(Cl)c(N[C@H]3[C@@H](C(N)=O)[C@@H]4C=C[C@H]3C4)n2)ccc2c1CC[C@@H](N1CCOCC1)CC2          599

* * *

ASSAY_REMARKS: Plasma concentration in SCID mouse xenografted with human KARPAS299 cells expressing NPM-ALK at 30 mg/kg, po after 24 hrs by LC-MS/MS analysis
Assay type: ADME, organism-based, KARPAS-299
Set-up: dose 30 mg/kg, route oral
MEASURE: concentration at 24 h (ng/mL)

>>> df
                            compound_string                measure  assay_value
0  COc1c(Nc2ncc(Cl)c(N[C@H]3[C@@H](C(N)=O)[C@@H]4C=C[C@H]3C4)n2)ccc2c1CC[C@@H](N1CCOCC1)CC2  concentration at 24 h           12

* * *

ASSAY_REMARKS: Oral bioavailability in cynomolgus monkey at 10 mg/kg
Assay type: ADME, organism-based, Macaca fascicularis
EXPERIMENTAL_PARAMETERS: in vivo
MEASURE: bioavailability (%)

>>> df
                            compound_string          measure  assay_value
0  COc1c(Nc2ncc(Cl)c(N[C@H]3[C@@H](C(N)=O)[C@@H]4C=C[C@H]3C4)n2)ccc2c1CC[C@@H](N1CCOCC1)CC2  bioavailability           16

* * *

ASSAY_REMARKS: AUC in SCID mouse at 10 mg/kg, po
Type: ADME, organism-based
Design: dose 10 mg/kg, route oral
EXPERIMENTAL_PARAMETERS: plasma
MEASURE: AUC (ng·h/mL)

>>> print(df.to_string())
                            compound_string  assay_value
0  COc1c(Nc2ncc(Cl)c(N[C@H]3[C@@H](C(N)=O)[C@@H]4C=C[C@H]3C4)n2)ccc2c1CC[C@@H](N1CCOCC1)CC2        21400

* * *

ASSAY_REMARKS: AUC (0 to 12 hrs) in rat 30 mg/kg, po
Format: ADME, organism-based
Design: time < 12 hr, dose 30 mg/kg, route oral
EXPERIMENTAL_PARAMETERS: plasma
MEASURE: AUC(0-t) at 12 h

                            compound_string    assay_value
0  CCN1C(=O)CCCc2c1ccc(Nc1ncc(Cl)c(N[C@H]3[C@@H](C(N)=O)[C@@H]4C=C[C@H]3C4)n1)c2OC  11800 ng·h/mL
1  COc1c(Nc2ncc(Cl)c(N[C@H]3[C@@H](C(N)=O)[C@@H]4C=C[C@H]3C4)n2)ccc2c1CC[C@@H](N1CCOCC1)CC2  10900 ng·h/mL

* * *

ASSAY_REMARKS: Half life in Beagle dog at 1 mg/kg, iv
Type: ADME, organism-based, Canis lupus familiaris
Design: dose 1 mg/kg, route intravenous
EXPERIMENTAL_PARAMETERS: in vivo
MEASURE: half-life (h)

In [3]: df
Out[3]:
                            compound_string    measure  measure_unit  assay_value
0  COc1c(Nc2ncc(Cl)c(N[C@H]3[C@@H](C(N)=O)[C@@H]4C=C[C@H]3C4)n2)ccc2c1CC[C@@H](N1CCOCC1)CC2  half-life             h          2.4

* * *

ASSAY_REMARKS: AUC in Sprague-Dawley rat at 10 mg/kg, po
Assay type: ADME, organism-based
Design: dose 10 mg/kg, route oral
EXPERIMENTAL_PARAMETERS: plasma
MEASURE: AUC (ng·h/mL)

In [3]: df
Out[3]:
                            compound_string  measure  assay_value
0  COc1c(Nc2ncc(Cl)c(N[C@H]3[C@@H](C(N)=O)[C@@H]4C=C[C@H]3C4)n2)ccc2c1CC[C@@H](N1CCOCC1)CC2      AUC         4830

* * *

ASSAY_TARGET: Ribosomal protein S6 kinase alpha-3 (Homo sapiens, UniProt P51812)
Sequence (P51812 whole entry): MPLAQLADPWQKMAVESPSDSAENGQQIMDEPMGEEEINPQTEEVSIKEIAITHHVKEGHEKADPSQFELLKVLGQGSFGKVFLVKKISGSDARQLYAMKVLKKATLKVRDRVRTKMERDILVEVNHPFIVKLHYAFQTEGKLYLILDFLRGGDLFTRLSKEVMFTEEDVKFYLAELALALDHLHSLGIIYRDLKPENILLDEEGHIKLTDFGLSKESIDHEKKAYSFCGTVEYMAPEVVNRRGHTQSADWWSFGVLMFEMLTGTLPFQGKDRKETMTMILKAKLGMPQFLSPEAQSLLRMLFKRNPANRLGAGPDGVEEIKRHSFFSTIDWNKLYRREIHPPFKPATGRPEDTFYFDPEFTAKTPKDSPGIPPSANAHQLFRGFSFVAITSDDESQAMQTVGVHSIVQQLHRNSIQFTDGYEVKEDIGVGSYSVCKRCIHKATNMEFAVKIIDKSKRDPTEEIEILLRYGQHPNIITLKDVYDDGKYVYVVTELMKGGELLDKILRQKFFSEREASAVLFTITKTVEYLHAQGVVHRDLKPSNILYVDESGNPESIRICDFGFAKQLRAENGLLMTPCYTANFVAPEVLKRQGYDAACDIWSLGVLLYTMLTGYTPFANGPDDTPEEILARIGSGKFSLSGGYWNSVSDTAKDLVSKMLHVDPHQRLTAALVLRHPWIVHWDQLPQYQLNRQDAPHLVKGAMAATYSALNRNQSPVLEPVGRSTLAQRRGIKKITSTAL
MEASURE: IC50 (nM)

>>> df
                            compound_string  assay_value
0  COc1c(Nc2ncc(Cl)c(N[C@H]3[C@@H](C(N)=O)[C@@H]4C=C[C@H]3C4)n2)ccc2c1CC[C@@H](N1CCOCC1)CC2           13

* * *

ASSAY_REMARKS: Drug level in SCID/beige mouse tumor xenografted with human KARPAS299 cells expressing NPM-ALK at 10 mg/kg, po bid after 2 hrs post last dose by LC-MS/MS analysis
Format: ADME, organism-based, Neoplasm, KARPAS-299
Set-up: dose 10 mg/kg, route oral
EXPERIMENTAL_PARAMETERS: read-out: Drug uptake
MEASURE: concentration at 2 h

>>> df
                            compound_string  assay_value
0  COc1c(Nc2ncc(Cl)c(N[C@H]3[C@@H](C(N)=O)[C@@H]4C=C[C@H]3C4)n2)ccc2c1CC[C@@H](N1CCOCC1)CC2     686 ng/g
